# Protocol Notes: Toxicity of sample to non-infected cells (MTT)
# Format: cell-based
# Assay Conditions: human, mt-4 cells, non-infected MT-4 cells, HTLV-IIIB system (No. 1), read-out: CC50 = 50% toxic concentration
Quantity Name: CC50 at 96 h (mg/L)
Express the result in mg/L but write the number alone.

Q. Sample `O=C(CCCCCCCCCCC(=O)Nc1cc(S(=O)(=O)O)c2cccc(S(=O)(=O)O)c2c1)Nc1cc(S(=O)(=O)O)c2cccc(S(=O)(=O)O)c2c1` — what was its CC50 at 96 h?
A. 383
